// provenance: paper PMC6473174

- Target of assay: UniProt Q8VBX4
- Protocol: STD NMR measurements (fragment screening and epitope mapping), STD amplification factor
- Type: binding
- Conditions: Figure 1a fragment screening; [P] = 10 μM, [L] = 0.2 mM, tsat = 4 s
Parameter: STD amplification factor

Q: # input compound: CNC(=O)Nc1nnc(C(C)(C)C)s1 [S44] ; wanted: its STD amplification factor
A: 7

Q: Also CN(C)S(=O)(=O)c1cccc(C(=O)O)c1 [S15] ?
A: 41

Q: Also CN(C)C(=O)Oc1cccc(C(=O)O)c1 [S22] ?
A: 24

Q: Also Cc1ccsc1/C=C/C(=O)O [S8] ?
A: 86

Q: Also COc1ccc(NS(C)(=O)=O)cc1 [S56] ?
A: 3

Q: Also CN(C)C(=O)c1csc(-c2ccccc2)n1 [S52] ?
A: 3

Q: Also O=c1c(-c2ccn[nH]2)cnc2sccn12 [compound 1] ?
A: 16

* * *

- Target of assay: murine langerin (Mus musculus)
- Sequence (Q8VBX4 whole entry, the tested form may be a part): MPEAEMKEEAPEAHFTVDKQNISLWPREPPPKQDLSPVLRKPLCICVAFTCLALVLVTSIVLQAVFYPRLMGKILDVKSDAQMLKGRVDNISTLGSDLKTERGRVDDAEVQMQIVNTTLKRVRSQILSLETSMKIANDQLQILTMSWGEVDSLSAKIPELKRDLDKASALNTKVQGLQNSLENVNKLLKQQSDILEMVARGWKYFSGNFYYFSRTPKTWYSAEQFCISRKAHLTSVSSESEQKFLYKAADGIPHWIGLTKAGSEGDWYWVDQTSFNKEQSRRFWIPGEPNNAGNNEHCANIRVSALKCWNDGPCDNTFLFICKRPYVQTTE
- Protocol: STD NMR measurements (fragment screening and epitope mapping), STD amplification factor
- Assay type: binding
- Conditions: Figure 1a fragment screening; [P] = 10 μM, [L] = 0.2 mM, tsat = 4 s
Give measured STD amplification factor for each item. Keep answers brief.
// no unit, no text: just the number

Q: # input compound: OCc1cc(-c2ccccc2)on1 [S58] ; wanted: its STD amplification factor
A: 19

Q: Also CCN1C(=O)c2ccccc2NC12CCCC2 [S37] ?
A: 2

Q: Also NC(=O)c1ccc(Cl)s1 [S18] ?
A: 21

Q: Also Nc1cccc2c1CN(C1CCCCC1)C2=O [S11] ?
A: 23

Q: Also COc1ccccc1/C=C1/C(=O)N=C(N)N1C [S31] ?
A: 5

Q: Also c1ccc(-c2nnc3n2CCCC3)cc1 [S30] ?
A: 8

Q: Also Cn1cc(CC(=O)O)c2ccccc21 [S53] ?
A: 37

Q: Also Nc1ccc2sc(C(=O)O)cc2c1 [S66] ?
A: 44

Q: Also COC(=O)c1cc(C)c(N)c(Br)c1 [S39] ?
A: 49

Q: Also O=C(O)Cc1cccc2occc12 [S6] ?
A: 55

Q: Also O=C(O)/C=C/c1ccc2c(c1)OCCO2 [S14] ?
A: 36

Q: Also O=C1NC(=O)C(Cc2ccncc2)S1 (stereo not shown) [S61] ?
A: 16

Q: Also Cc1nnc(-c2ccccc2)nc1O [S3] ?
A: 19
